test system: NIK; construct: gene MAP3K14; conditions: concentration: 1 μM, replicates: in singlicate; n = 1;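 note: KINOMEscan kinase panel screen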
What %Inh was measured for each of the following?
One number for each entry, in %.

// solved cases for %Inh follow
INSERT INTO assay_data (compound, quantitymeasured, unitspec, reported) VALUES
  ('Cn1ccc2ncnc(Nc3ccc(Oc4cccc(Cl)c4)c(Cl)c3)c21', '%Inh', '%', 0),
  ('Nc1nc(-c2ccccn2)c(-c2ccnc3ccccc23)s1 [GW548057]', '%Inh', '%', 22),
  ('NC(=O)c1sc(-n2cnc3ccccc32)cc1OCc1ccccc1F [GSK1024306]', '%Inh', '%', 0),
  ('COc1ccc(NC(=O)Nc2ccc(C)c(-c3ccc(C(=O)Nc4ccncc4)cc3)c2)cc1 [GSK1398475]', '%Inh', '%', 0);

Lab note: next compound to report on.
Item under review: CNc1nccc(-c2c(-c3ccc(F)cc3)ncn2CCCN2CCOCC2)n1 [SB-222516] . Reported %Inh?
47

* * *

What %Inh was measured for each of the following?
test system: BRK; construct: gene PTK6; details: concentration: 1 μM, replicates: in singlicate; n = 1
One number for each entry, in %.

INSERT INTO results (smilesstructure, reported) VALUES
  ('FC(F)(F)c1ccc(-c2nn3ncccc3c2-c2ccnc(Nc3cccc(C(F)(F)F)c3)n2)cc1', 0),
  ('Nc1nc(-c2ccc3c(N)n[nH]c3c2)cc(N2CCC[C@@H](C(=O)Nc3ccccc3)C2)n1.O=C(O)C(F)(F)F.O=C(O)C(F)(F)F', 5),
  ('O=C(c1ccc(-c2cc(-c3c[nH]nc3-c3ccccn3)ccn2)cc1)N1CCCC1', 0);

Item under review: Fc1ccc(-c2ncn(CCCNCc3ccccc3)c2-c2ccncc2)cc1 . Reported %Inh?
3

* * *

system: TEC; details: concentration: 1 μM, replicates: in singlicate; n = 1
quantityMeasured: %Inh (%)
Numbers only, in %.

INSERT INTO assay_data (compound, quantitymeasured, reported) VALUES
  ('Cc1cc(N2CCC(NS(=O)(=O)c3ccc(F)cc3)CC2)nc(Nc2cccc(C#N)c2)n1.O=C(O)C(F)(F)F', '%Inh', 0),
  ('COc1ccc(NC(=O)c2ccc(-c3cc(-c4nnc(C)o4)ccc3C)cc2)cc1', '%Inh', 2),
  ('CC(C)(C)OC(=O)NC1CCCN(c2cc(-c3ccc4c(N)n[nH]c4c3)nc(N)n2)C1 (stereo not drawn)', '%Inh', 5),
  ('O=C(c1ccc(-c2cc(-c3c[nH]nc3-c3ccccn3)ccn2)cc1)N1CCCC1', '%Inh', 8),
  ('CN1CCC(n2cnc(-c3ccc(F)cc3)c2-c2ccnc(NC3CCNCC3)n2)CC1', '%Inh', 0);

The following compounds each have a reported value; give each one's %Inh.
1. Fc1cccc(COc2ccc(Nc3ncnc4sc(-c5ccc[nH]5)cc34)cc2Cl)c1
2. CS(=O)(=O)CCNCc1nc(-c2ccc3ncnc(Nc4ccc(OCc5cccc(F)c5)c(Cl)c4)c3c2)cs1.Cl
3. COc1ccc(-c2nc3n(c2-c2ccncc2)CCC3)cc1

1. 0
2. 0
3. 0

The following compounds each have a reported value; give each one's %Inh.
1. Clc1cc(Nc2ncnc3cc[nH]c23)ccc1OCc1ccccn1
2. NC(=O)c1sc(-n2cnc3ccccc32)cc1OCc1ccccc1F
3. CN1c2ccc(-c3ccc(C(=O)NCCO)cc3)cc2-c2[nH]ncc2S1(=O)=O
4. CC(C)(C)c1ccc(-n2cnc3c(N)ncnc32)cc1
5. CSc1ccc(NC2=C(c3ccccc3Cl)C(=O)NC2=O)cc1

0
22
1
12
10
